Biological target: PTPN13_2, Q12923
Sequence (Q12923 1363-1462): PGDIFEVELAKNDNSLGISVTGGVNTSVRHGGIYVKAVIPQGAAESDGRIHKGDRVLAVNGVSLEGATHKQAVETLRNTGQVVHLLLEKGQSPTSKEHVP
Test: holdup assay
Design: key: below the threshold = too weak to quantify, mostly under pKd 3.1 to 4
Conditions: plain residues with an end cap or a label only (N-terminal biotin on a linker: ttds)
value_kind: pKd

binder="RPLPRKVSQL [DOCK4, Q8N1I0]" value_kind=pKd obs_value="below the threshold"
binder="QRQARSETLV [HPV59-E6, Q81964]" value_kind=pKd obs_value="below the threshold"
binder="RLQRRRETQV [HPV18-E6, P06463]" value_kind=pKd obs_value="below the threshold"
binder="RLPKIKETTV [FRMPD4, Q14CM0]" value_kind=pKd obs_value=4.31
binder="SKPTRRETEV [HPV35-E6, P27228]" value_kind=pKd obs_value="below the threshold"
binder="RHTTSTETAV [HPV30-E6, P36809]" value_kind=pKd obs_value="below the threshold"
binder="SGSRPSATVV [HPV73-E6, Q82005]" value_kind=pKd obs_value="below the threshold"
binder="SSLQSLETSV [ATP2B4, P23634]" value_kind=pKd obs_value=4.45
